Where do the numbers come from? From paper PMC3154423.

# target_entity: Jun bZIP R270A;Fos bZIP R158A (human;human, UniProt P05412;P01100 252-315;137-200, R270A|R158A)
# Sequence (P05412 252-315 R270A, chain 1 of 2): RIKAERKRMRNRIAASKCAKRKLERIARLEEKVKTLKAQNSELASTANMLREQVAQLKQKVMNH
# Sequence (P01100 137-200 R158A, chain 2 of 2): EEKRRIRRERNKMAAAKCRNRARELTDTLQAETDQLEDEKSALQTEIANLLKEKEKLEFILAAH
# assay_remarks: ITC
measured_property: Kd
Lab note: write values as number then unit, every time.

In: State its Kd for this binder: TRE duplex 15-mer (dsDNA) DNA 1: CGCGTGACTCACCCC DNA 2: GGGGTGAGTCACGCG
Out: 1540 nM
